Tested on: batrachotoxin (BTX) binding site of the sodium channel
assay-details: Affinity to the batrachotoxin (BTX) binding site of the sodium channel
Set-up: species or system rat
measurement-conditions: [3H]-batrachotoxinin A20 α-benzoate 10 nM; synaptosomes from rat cerebral cortex; test concentration not given
y means recorded BTX inhibition (rat) (% inhibition) is 50% or above; n means it is below 50%.

Check if BTX inhibition (rat) (% inhibition) >= 50% (inclusive). Item: CCCCN(C(=O)c1cccc(Cl)c1)c1nc2n(c1C(=O)NCC1COc3ccccc3O1)CCCC2 (stereo not drawn)
y

Further cases:
Check if BTX inhibition (rat) (% inhibition) >= 50% (inclusive). Item: CN(C(=O)c1cccc2ccccc12)c1nc2n(c1C(=O)N(C)C1CCN(Cc3ccc(-c4ccccc4)cc3)C1)CCCC2 (stereo not drawn)
y

Check if BTX inhibition (rat) (% inhibition) >= 50% (inclusive). Item: "CCCCN(C(=O)c1cccc(Cl)c1)c1nc2n(c1C(=O)NCCc1ccc(Oc3ccccc3)cc1)CCCC2"
y

Check if BTX inhibition (rat) (% inhibition) >= 50% (inclusive). Item: CCCCN(C(=O)c1cccc(Cl)c1)c1nc2n(c1C(=O)NC1CCN(Cc3cc(OC)c(OC)cc3Br)C1)CCCC2 (stereo not drawn)
y

Check if BTX inhibition (rat) (% inhibition) >= 50% (inclusive). Item: "CCc1ccccc1N1CCN(C(=O)c2c(N(C)C(=O)c3ccccc3)nc3n2CCCC3)CC1"
n

Check if BTX inhibition (rat) (% inhibition) >= 50% (inclusive). Item: "CCCCN(C(=O)c1cccc(Cl)c1)c1nc2n(c1C(=O)NCc1cccc(F)c1)CCCC2"
n

Check if BTX inhibition (rat) (% inhibition) >= 50% (inclusive). Item: "CCCCN(C(=O)c1ccc(F)c(F)c1)c1nc2n(c1C(=O)N1CCN(C(c3ccccc3)c3ccccc3)CC1)CCCC2"
y

Check if BTX inhibition (rat) (% inhibition) >= 50% (inclusive). Item: "CN(C(=O)c1cccc2ccccc12)c1nc2n(c1C(=O)N1CCN(c3ccccc3Cl)CC1)CCCC2"
n

* * *

Tested on: batrachotoxin (BTX) binding site of the sodium channel
assay-details: Affinity to the batrachotoxin (BTX) binding site of the sodium channel
Parameters: species or system rat
measurement-conditions: [3H]-batrachotoxinin A20 α-benzoate 10 nM; synaptosomes from rat cerebral cortex; test concentration not given
1 means recorded BTX inhibition (rat) (% inhibition) is 70% or above; -1 means it is below 70%.

Check if BTX inhibition (rat) (% inhibition) >= 70% (inclusive). Item: "CCCCN(C(=O)c1ccc(F)c(F)c1)c1nc2n(c1C(=O)N1CCN(c3ccccc3Cl)CC1)CCCC2"
1

Check if BTX inhibition (rat) (% inhibition) >= 70% (inclusive). Item: "Cc1ccc(C)c(N2CCN(C(=O)c3c(N(C)C(=O)c4cccc(Cl)c4)nc4n3CCCC4)CC2)c1"
1

Check if BTX inhibition (rat) (% inhibition) >= 70% (inclusive). Item: "CCCCN(C(=O)c1cccc(Cl)c1)c1nc2n(c1C(=O)NCCc1c[nH]c3c(C)cccc13)CCCC2"
-1

Check if BTX inhibition (rat) (% inhibition) >= 70% (inclusive). Item: CC(CNC(=O)c1c(N(C)C(=O)c2cccc3ccccc23)nc2n1CCCC2)c1ccc(Cl)cc1 (stereo not shown)
-1

Check if BTX inhibition (rat) (% inhibition) >= 70% (inclusive). Item: CCCCN(C(=O)c1cccc(Cl)c1)c1nc2n(c1C(=O)NC(COC)Cc1ccccc1)CCCC2 (stereo not shown)
-1

Check if BTX inhibition (rat) (% inhibition) >= 70% (inclusive). Item: "CN(C(=O)c1cccc(Cl)c1)c1nc2n(c1C(=O)N1CCN(Cc3ccc4ccccc4n3)CC1)CCCC2"
-1

Check if BTX inhibition (rat) (% inhibition) >= 70% (inclusive). Item: "CCOc1ccc(Br)cc1CN1CCN(C(=O)c2c(N(C)C(=O)Cc3ccccc3)nc3n2CCCC3)CC1"
-1

* * *

Test system: batrachotoxin (BTX) binding site of the sodium channel
assay-details: Affinity to the batrachotoxin (BTX) binding site of the sodium channel
Design: species or system rat
measurement-conditions: [3H]-batrachotoxinin A20 α-benzoate 10 nM; synaptosomes from rat cerebral cortex; test concentration not given
MET means recorded BTX inhibition (rat) (% inhibition) is 70% or above; NOT MET means it is below 70%.

Check if BTX inhibition (rat) (% inhibition) >= 70% (inclusive). Item: CN(C(=O)c1ccccc1)c1nc2n(c1C(=O)NCc1ccc(Cl)cc1)CCCC2 [Example 157]
NOT MET

* * *

Tested on: batrachotoxin (BTX) binding site of the sodium channel
assay-details: Affinity to the batrachotoxin (BTX) binding site of the sodium channel
Parameters: species or system rat
measurement-conditions: [3H]-batrachotoxinin A20 α-benzoate 10 nM; synaptosomes from rat cerebral cortex; test concentration not given
parameter: BTX inhibition (rat) (% inhibition) (%)
// note: answer is a bare numeric in %

Kindly note the recorded BTX inhibition (rat) (% inhibition) for "CN(C(=O)c1cccc(Cl)c1)c1nc2n(c1C(=O)N1CC=C(c3ccc(F)cc3)CC1)CCCC2" , which is 38

Kindly note the recorded BTX inhibition (rat) (% inhibition) for "CN(C(=O)c1cccc(Cl)c1)c1nc2n(c1C(=O)NCCC(c1ccccc1)c1ccccc1)CCCC2" , which is 85

Kindly note the recorded BTX inhibition (rat) (% inhibition) for "CN(C(=O)c1cccc2ccccc12)c1nc2n(c1C(=O)N1CCN(CCc3ccccc3)CC1)CCCC2" , which is 47

Kindly note the recorded BTX inhibition (rat) (% inhibition) for "CCCCN(C(=O)c1cccc(Cl)c1)c1nc2n(c1C(=O)NC(c1ccccc1)c1ccccc1)CCCC2" , which is 56

Kindly note the recorded BTX inhibition (rat) (% inhibition) for "CCCCN(C(=O)c1cccc(Cl)c1)c1nc2n(c1C(=O)NCc1ccc(F)cc1F)CCCC2" , which is 44

Kindly note the recorded BTX inhibition (rat) (% inhibition) for "CN(C(=O)Cc1ccccc1)c1nc2n(c1C(=O)NCCc1cccc(C(F)(F)F)c1)CCCC2" , which is 40

* * *

Tested on: batrachotoxin (BTX) binding site of the sodium channel
assay-details: Affinity to the batrachotoxin (BTX) binding site of the sodium channel
Set-up: species or system rat
measurement-conditions: [3H]-batrachotoxinin A20 α-benzoate 10 nM; synaptosomes from rat cerebral cortex; test concentration not given
Item-by-item account of BTX inhibition (rat) (% inhibition)
// note: answer is a bare numeric in %

Guide cases for BTX inhibition (rat) (% inhibition), answers given:
Kindly note the recorded BTX inhibition (rat) (% inhibition) for CC(NC(=O)c1c(N(C)C(=O)c2cccc(Cl)c2)nc2n1CCCC2)C12CC3CC(CC(C3)C1)C2 (stereo not shown) [Example 165] , which is 39

Kindly note the recorded BTX inhibition (rat) (% inhibition) for CCCCN(C(=O)c1cccc(Cl)c1)c1nc2n(c1C(=O)N1CCN(c3ccccn3)CC1)CCCC2 [Example 72] , which is 39

Kindly note the recorded BTX inhibition (rat) (% inhibition) for CCCCN(C(=O)c1cccc(Cl)c1)c1nc2n(c1C(=O)NCc1ccccc1C(F)(F)F)CCCC2 [Example 51] , which is 35

Further cases:
Kindly note the recorded BTX inhibition (rat) (% inhibition) for CCCCN(C(=O)c1ccc(F)c(F)c1)c1nc2n(c1C(=O)N1CCN(Cc3ccc4c(c3)OCO4)CC1)CCCC2 [Example 137] , which is 72

Kindly note the recorded BTX inhibition (rat) (% inhibition) for Cc1ccc(CCNC(=O)c2c(N(C)C(=O)c3cccc4ccccc34)nc3n2CCCC3)cc1 [Example 49] , which is 37

Kindly note the recorded BTX inhibition (rat) (% inhibition) for CCCCN(C(=O)c1ccc(F)c(F)c1)c1nc2n(c1C(=O)NCCC(c1ccccc1)c1ccccc1)CCCC2 [Example 180] , which is 62

Kindly note the recorded BTX inhibition (rat) (% inhibition) for CCCCN(C(=O)c1cccc(Cl)c1)c1nc2n(c1C(=O)NC(C)c1cccc3ccccc13)CCCC2 (stereo not shown) [Example 39] , which is 47

* * *

Test system: batrachotoxin (BTX) binding site of the sodium channel
assay-details: Affinity to the batrachotoxin (BTX) binding site of the sodium channel
Set-up: species or system rat
measurement-conditions: [3H]-batrachotoxinin A20 α-benzoate 10 nM; synaptosomes from rat cerebral cortex; test concentration not given
parameter: BTX inhibition (rat) (% inhibition) (%)
// note: answer is a bare numeric in %

Kindly note the recorded BTX inhibition (rat) (% inhibition) for CCCCN(C(=O)c1ccc(F)c(F)c1)c1nc2n(c1C(=O)NC1CCCCC1OCc1ccccc1)CCCC2 (stereo not shown) , which is 49

Kindly note the recorded BTX inhibition (rat) (% inhibition) for "CCCCN(C(=O)c1cccc(Cl)c1)c1nc2n(c1C(=O)NCCN1CCCC1)CCCC2" , which is 50

Kindly note the recorded BTX inhibition (rat) (% inhibition) for CN(C(=O)Cc1ccccc1)c1nc2n(c1C(=O)N(C)C1CCN(Cc3ccc(-c4ccccc4)cc3)C1)CCCC2 (stereo not shown) , which is 92

Kindly note the recorded BTX inhibition (rat) (% inhibition) for "CCCCN(C(=O)c1cccc(Cl)c1)c1nc2n(c1C(=O)N1CCC(O)(c3cccc(C(F)(F)F)c3)CC1)CCCC2" , which is 65

Kindly note the recorded BTX inhibition (rat) (% inhibition) for CN(C(=O)c1ccccc1)c1nc2n(c1C(=O)NC1CCN(Cc3c(Cl)cccc3Cl)C1)CCCC2 (stereo not shown) , which is 54

Kindly note the recorded BTX inhibition (rat) (% inhibition) for "CN(C(=O)c1cccc(Cl)c1)c1nc2n(c1C(=O)Nc1ccc(OCc3ccccc3)cc1)CCCC2" , which is 76

Further cases:
Kindly note the recorded BTX inhibition (rat) (% inhibition) for CCCCN(C(=O)c1cccc(Cl)c1)c1nc2n(c1C(=O)NC1CCCCC1OCc1ccccc1)CCCC2 (stereo not shown) , which is 48
